Please provide measured peptide exchange yield for the entries that follow.
systemTested: HLA-A*24 (human)
protocolDetails: UV-exchange ELISA, exchange yield grade

Exercise: Give me measured peptide exchange yield, please, for this binder: QYLVHVNDL [… (SEQ ID NO: 185)]
Solution: > 75%

Exercise: Give me measured peptide exchange yield, please, for this binder: IFTDIFHYL [… (SEQ ID NO: 197)]
Solution: > 75%

Exercise: Give me measured peptide exchange yield, please, for this binder: SYAPPSEDLF [… (SEQ ID NO: 212)]
Solution: 20 to 49%

Exercise: Give me measured peptide exchange yield, please, for this binder: SYQVIFQHF [… (SEQ ID NO: 296)]
Solution: > 75%

Exercise: Give me measured peptide exchange yield, please, for this binder: LYSELTETL [… (SEQ ID NO: 190)]
Solution: 50 to 75%

Exercise: Give me measured peptide exchange yield, please, for this binder: KYFPYLVVI [… (SEQ ID NO: 107)]
Solution: 50 to 75%

Exercise: Give me measured peptide exchange yield, please, for this binder: VFIAQGYTL [… (SEQ ID NO: 379)]
Solution: > 75%

Exercise: Give me measured peptide exchange yield, please, for this binder: NYLGGTSTI [… (SEQ ID NO: 343)]
Solution: 50 to 75%

Exercise: Give me measured peptide exchange yield, please, for this binder: SYNGHLTIWF [… (SEQ ID NO: 141)]
Solution: 50 to 75%

Exercise: Give me measured peptide exchange yield, please, for this binder: EYNSDLHQF [… (SEQ ID NO: 344)]
Solution: 50 to 75%

Exercise: Give me measured peptide exchange yield, please, for this binder: TYGMVMVTF [… (SEQ ID NO: 230)]
Solution: 50 to 75%

Exercise: Give me measured peptide exchange yield, please, for this binder: RYLEAALRL [… (SEQ ID NO: 168)]
Solution: 50 to 75%

Exercise: Give me measured peptide exchange yield, please, for this binder: KYSDVKNLI [… (SEQ ID NO: 319)]
Solution: > 75%

Exercise: Give me measured peptide exchange yield, please, for this binder: TYPSQLPSL [… (SEQ ID NO: 300)]
Solution: 50 to 75%

Exercise: Give me measured peptide exchange yield, please, for this binder: AYIKGGWIL [… (SEQ ID NO: 195)]
Solution: 50 to 75%

Exercise: Give me measured peptide exchange yield, please, for this binder: VYTGIDHHW [… (SEQ ID NO: 380)]
Solution: > 75%

Exercise: Give me measured peptide exchange yield, please, for this binder: FYVNVKEQF [… (SEQ ID NO: 216)]
Solution: 50 to 75%

Exercise: Give me measured peptide exchange yield, please, for this binder: VYPHFSTTNLI [… (SEQ ID NO: 293)]
Solution: > 75%

Exercise: Give me measured peptide exchange yield, please, for this binder: QYIEELQKF [… (SEQ ID NO: 385)]
Solution: 50 to 75%

Exercise: Give me measured peptide exchange yield, please, for this binder: TYTFLKETF [… (SEQ ID NO: 97)]
Solution: > 75%

Exercise: Give me measured peptide exchange yield, please, for this binder: KYIFQLNEI [… (SEQ ID NO: 143)]
Solution: 50 to 75%

Exercise: Give me measured peptide exchange yield, please, for this binder: AYAQLGYLL [… (SEQ ID NO: 258)]
Solution: 50 to 75%

Exercise: Give me measured peptide exchange yield, please, for this binder: IYPEWPVVFF [… (SEQ ID NO: 136)]
Solution: 50 to 75%

Exercise: Give me measured peptide exchange yield, please, for this binder: VYRVYVTTF [… (SEQ ID NO: 119)]
Solution: 50 to 75%

Exercise: Give me measured peptide exchange yield, please, for this binder: VYNAVSTSF [… (SEQ ID NO: 138)]
Solution: 20 to 49%

Exercise: Give me measured peptide exchange yield, please, for this binder: QYLEKYYNL [… (SEQ ID NO: 173)]
Solution: > 75%

Exercise: Give me measured peptide exchange yield, please, for this binder: TYNPNLQDKL [… (SEQ ID NO: 280)]
Solution: > 75%

Exercise: Give me measured peptide exchange yield, please, for this binder: FYPQIINTF [… (SEQ ID NO: 292)]
Solution: > 75%

Exercise: Give me measured peptide exchange yield, please, for this binder: LYPQLFVVL [… (SEQ ID NO: 245)]
Solution: 50 to 75%

Exercise: Give me measured peptide exchange yield, please, for this binder: TYSNSAFQYF [… (SEQ ID NO: 318)]
Solution: 50 to 75%

Exercise: Give me measured peptide exchange yield, please, for this binder: VYTKALSSL [… (SEQ ID NO: 251)]
Solution: 50 to 75%

Exercise: Give me measured peptide exchange yield, please, for this binder: VYTHEVVTL [… (SEQ ID NO: 369)]
Solution: 50 to 75%
